Numbers sourced from ChEMBL document CHEMBL6087456.

systemUnderTest: UniProt P02768
Sequence (P02768 whole entry): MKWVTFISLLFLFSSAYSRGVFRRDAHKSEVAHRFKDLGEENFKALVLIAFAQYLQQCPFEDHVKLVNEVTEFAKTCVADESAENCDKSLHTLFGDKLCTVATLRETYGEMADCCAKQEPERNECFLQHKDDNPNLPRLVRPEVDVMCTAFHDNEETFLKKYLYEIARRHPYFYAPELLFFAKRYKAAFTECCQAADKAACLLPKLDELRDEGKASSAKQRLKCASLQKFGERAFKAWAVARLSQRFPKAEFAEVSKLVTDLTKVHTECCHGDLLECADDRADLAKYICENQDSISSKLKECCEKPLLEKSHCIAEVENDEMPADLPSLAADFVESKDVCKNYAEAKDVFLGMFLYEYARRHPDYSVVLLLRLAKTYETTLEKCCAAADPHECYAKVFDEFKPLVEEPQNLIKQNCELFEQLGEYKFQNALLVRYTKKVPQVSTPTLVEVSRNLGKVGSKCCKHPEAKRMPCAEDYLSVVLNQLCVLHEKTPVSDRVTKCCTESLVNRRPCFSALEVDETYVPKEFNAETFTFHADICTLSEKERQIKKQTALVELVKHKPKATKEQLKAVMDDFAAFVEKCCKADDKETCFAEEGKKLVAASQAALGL
testDetails: Protein binding to albumin (unknown origin) in ALBUMAX medium
Assay type: ADME
conditionParameters: read-out: PB (converted)
resultType: fraction unbound

>>> recordedvalue("Cn1nc2c(=O)n(C3CC3)ccc2c1[C@](O)(c1cnc(C(F)(F)F)c(Cl)c1)C(F)(F)F")
0.338
>>> recordedvalue("CC[C@@](O)(c1cnc(C(F)(F)F)c(Cl)c1)c1c2cnn(C3CC3)c(=O)c2nn1C")
0.709
>>> recordedvalue("CC[C@@](O)(c1cnc(C(F)(F)F)c(Cl)c1)c1c2ccn(C3CC3)c(=O)c2nn1C")
0.511
>>> recordedvalue("CC[C@@](N)(c1cnc(C(F)(F)F)c(Cl)c1)c1c2ccn(C3CC3)c(=O)c2nn1C")
0.63
>>> recordedvalue("CCn1cc(Cl)c2c(Cc3ccc(C(F)(F)F)nc3)n(C)nc2c1=O")
0.558
